Tested on: Plasmodium berghei
Experiment: Luciferase/luciferin-expressing antifolate-resistant parasites were used to infect a culture of HepG2 cells that were pre-incubated with compounds. Infected hepatocytes emit light due to the luciferase reaction. Assay results are presented as the percent inhibition of light emission compared to control. […]
Type: functional
Settings: sporozoite, FFLUC_HILL_SLOPE 11.3, FFLUC_R_SQUARED 0.167, read-out: LUCIFERASE INFECTION ASSAY - IC50
property: IC50

Readout IC50 for CCN(CC)S(=O)(=O)c1ccc(Cl)c(NC(=O)CSc2nnc(-c3ccc(F)cc3)c3ccccc23)c1 , test system Plasmodium berghei, was > 10 µM

---

System: Plasmodium berghei
Assay: Luciferase/luciferin-expressing antifolate-resistant parasites were used to infect a culture of HepG2 cells that were pre-incubated with compounds. Infected hepatocytes emit light due to the luciferase reaction. Assay results are presented as the percent inhibition of light emission compared to control. […]
Assay type: functional
Conditions: sporozoite, read-out: LUCIFERASE INFECTION ASSAY - IC50
pIC50: −log10 of the molar value.
# pIC50 per record follows

Solved entries (count: 4):
> print(dat)
                                   compound  experimentalsystem  reportedvalue
1       COc1cc2c(cc1NC(=O)c1cccc(F)c1)CCCC2  Plasmodium berghei           5.34
2  CCCOc1ccc2ccccc2c1CN(C)c1cncc(-n2cccn2)n1  Plasmodium berghei         < 5.00
3  CCOC(=O)c1cc(C#N)c(SCC(=O)Nc2ccccc2CC)nc1C  Plasmodium berghei         < 5.00
4  COCCn1cnc2c1c(=O)n(CC(=O)NC1(C#N)CCCCCC1)c(=O)n2CC(C)C  Plasmodium berghei         < 5.00

Per the reported Plasmodium berghei data, Cc1ccc(NCC(=O)c2ccc(-n3nncc3-c3ccccc3)cc2)cc1 has pIC50 of < 5.00

Lab note: compound CCN(CC)S(=O)(=O)c1ccc(-c2csc(Nc3ccccn3)n2)cc1 tested on Plasmodium berghei; recorded pIC50 was < 5.00

Value (pIC50, Plasmodium berghei) for record O=C(NCc1ccc(C(F)(F)F)cc1)c1cc(C(F)(F)F)cc(C(F)(F)F)c1 = < 5.10

Form: item CCOC(=O)c1sc(N)c(C#N)c1CSc1nnc(-c2ccncc2)n1-c1ccc(CC)cc1 ; test system Plasmodium berghei; pIC50: < 5.00

// compound O=C(Cc1csc(-c2ncccn2)n1)Oc1ccc(N2CCCC2=O)cc1 , assay Plasmodium berghei, pIC50 value: < 5.00

---

System: Plasmodium berghei
Test: Luciferase/luciferin-expressing antifolate-resistant parasites were used to infect a culture of HepG2 cells that were pre-incubated with compounds. Infected hepatocytes emit light due to the luciferase reaction. Assay results are presented as the percent inhibition of light emission compared to control. […]
Format: functional
Details: sporozoite, PBLUC_HILL_SLOPE 1.6, PBLUC_R_SQUARED 0.718, read-out: LUCIFERASE INFECTION ASSAY - IC50
property: IC50 (µM)
Reply with just the number (in µM).

Measured IC50 of O=C(CN(Cc1ccco1)S(=O)(=O)c1ccccc1F)Nc1ccc(SC(F)F)cc1 : 3.47

---

Tested on: Plasmodium berghei
Assay: Luciferase/luciferin-expressing antifolate-resistant parasites were used to infect a culture of HepG2 cells that were pre-incubated with compounds. Infected hepatocytes emit light due to the luciferase reaction. Assay results are presented as the percent inhibition of light emission compared to control. […]
Assay type: functional
Details: sporozoite, PBLUC_HILL_SLOPE 9.57, PBLUC_R_SQUARED 0.436, read-out: LUCIFERASE INFECTION ASSAY - IC50
property: IC50 (µM)
Return type: number; implicit unit µM.

What the record says about Cc1ccc(C(=O)Nc2nc3cc4c(cc3s2)OCCO4)s1 : IC50 is 8.59

---

System: Plasmodium berghei
Assay: Luciferase/luciferin-expressing antifolate-resistant parasites were used to infect a culture of HepG2 cells that were pre-incubated with compounds. Infected hepatocytes emit light due to the luciferase reaction. Assay results are presented as the percent inhibition of light emission compared to control. […]
Assay type: functional
Conditions: sporozoite, FFLUC_HILL_SLOPE 10.3, FFLUC_R_SQUARED 0.148, read-out: LUCIFERASE INFECTION ASSAY - IC50
pIC50: −log10 of the molar value.
property: pIC50

The compound listed as Cc1cc2[nH]c(C)cc(=O)n2n1 shows pIC50 equal to < 4.69

---

System: Plasmodium berghei
Experiment: Luciferase/luciferin-expressing antifolate-resistant parasites were used to infect a culture of HepG2 cells that were pre-incubated with compounds. Infected hepatocytes emit light due to the luciferase reaction. Assay results are presented as the percent inhibition of light emission compared to control. […]
Type: functional
Settings: sporozoite, read-out: LUCIFERASE INFECTION ASSAY - IC90
property: IC90

> print(dat)
                                   molecule  reportedvalue
1  COc1cc(/C=C/C(=O)Nc2nc3c(s2)CC(C)CC3)cc(OC)c1 (stereo not given)        > 10 µM
2         CC(C)(C)Nc1ncnc2sc(-c3ccccc3)cc12        > 10 µM
3  N#Cc1ccsc1NC(=O)CN1CCN(CC(=O)Nc2ccc(Cl)c(C(F)(F)F)c2)CC1        > 10 µM

Now consider a different molecule.
Record summary for CCOC(=O)c1cnn(-c2c(Cl)cc(Cl)cc2Cl)c1-c1ccccc1 : reported IC90 = > 8.34 µM

---

Test system: Plasmodium berghei
Experiment: Luciferase/luciferin-expressing antifolate-resistant parasites were used to infect a culture of HepG2 cells that were pre-incubated with compounds. Infected hepatocytes emit light due to the luciferase reaction. Assay results are presented as the percent inhibition of light emission compared to control. […]
Assay type: functional
Settings: sporozoite, HEPG2TOX_HILL_SLOPE 3.62, HEPG2TOX_R_SQUARED 0.356, PBLUC_HILL_SLOPE 12.1, PBLUC_R_SQUARED 0.388, read-out: LUCIFERASE INFECTION ASSAY - IC50
property: IC50 (µM)
Number only, in µM; omit the unit.

For O=C(NC1CCN(Cc2ccccc2)CC1)N1CCN(Cc2ccc(Br)s2)CC1 on Plasmodium berghei, measured IC50 was 3.62

---

System: Plasmodium berghei
Assay: Luciferase/luciferin-expressing antifolate-resistant parasites were used to infect a culture of HepG2 cells that were pre-incubated with compounds. Infected hepatocytes emit light due to the luciferase reaction. Assay results are presented as the percent inhibition of light emission compared to control. […]
Type: functional
Conditions: sporozoite, PBLUC_HILL_SLOPE 2.26, PBLUC_R_SQUARED 0.443, read-out: LUCIFERASE INFECTION ASSAY - IC50
property: pIC50
Conceptually, pIC50 converts a concentration in mol/L into minus its log10.

The value of pIC50 measured for the molecule Cc1cc(C(=O)CN2C(=O)NC3(CCCc4sccc43)C2=O)c(C)n1Cc1ccc2c(c1)OCO2 (stereo unspecified) turned out to be 5.09

---

Test system: Plasmodium berghei
Assay: Luciferase/luciferin-expressing antifolate-resistant parasites were used to infect a culture of HepG2 cells that were pre-incubated with compounds. Infected hepatocytes emit light due to the luciferase reaction. Assay results are presented as the percent inhibition of light emission compared to control. […]
Assay type: functional
Conditions: sporozoite, read-out: LUCIFERASE INFECTION ASSAY - IC90
Collected IC90 values appear next to each entry.

The following molecules have reported results that may help.
> print(dat)
                                   molecule  experimentalsystem  property  reportedvalue
1   O=c1cc(C(F)(F)F)[nH]c2cc(C(F)(F)F)ccc12  Plasmodium berghei      IC90        4.25 µM
2  CCOC(=O)c1cc(Sc2ccccc2NC(=O)Nc2ccc(C)cc2)cc(C(=O)OCC)n1  Plasmodium berghei      IC90      > 6.88 µM
3  O=C1OC(C23CC4CC(CC(C4)C2)C3)=N/C1=C\c1ccc(N2CCOCC2)cc1  Plasmodium berghei      IC90        > 10 µM
4  CC(=O)NCCC(=O)N(c1ccc(Oc2ccccc2)cc1)c1nc2ccccc2s1  Plasmodium berghei      IC90        > 10 µM
5  CCOC(=O)c1sc(N)c(C#N)c1COC(=O)C1CCN(S(=O)(=O)c2ccc(C)c(C)c2)CC1  Plasmodium berghei      IC90        > 10 µM
6  CN1CCN(S(=O)(=O)c2cc(C(=O)NCc3ccccc3F)cc(-c3ccccc3)c2)CC1  Plasmodium berghei      IC90      > 7.06 µM

Noted for COc1ccc(C2Sc3ccccc3N=C3C2=C(O)c2ccccc23)cc1 (stereo not given) : its IC90 reads 1.84 µM

# IC90 (molecule: CCCCNC(=O)c1c(NC(=O)c2ccc(F)cc2)nc2ccccn12 ) is 3.43 µM

FC(F)(F)c1nc2ccccc2n2c(-c3ccc(Br)cc3)nnc12 yielded IC90 of > 8.39 µM

What the record says about Cc1ccc(-c2csc3ncn(CC(=O)c4cc(C)n(C5CCS(=O)(=O)C5)c4C)c(=O)c23)cc1 (stereo not given) : IC90 is > 10 µM

The reported measurements were obtained from ChEMBL document CHEMBL4483862.
